- systemUnderTest: PI3Kδ (Homo sapiens, UniProt O00329)
- Sequence (O00329 whole entry): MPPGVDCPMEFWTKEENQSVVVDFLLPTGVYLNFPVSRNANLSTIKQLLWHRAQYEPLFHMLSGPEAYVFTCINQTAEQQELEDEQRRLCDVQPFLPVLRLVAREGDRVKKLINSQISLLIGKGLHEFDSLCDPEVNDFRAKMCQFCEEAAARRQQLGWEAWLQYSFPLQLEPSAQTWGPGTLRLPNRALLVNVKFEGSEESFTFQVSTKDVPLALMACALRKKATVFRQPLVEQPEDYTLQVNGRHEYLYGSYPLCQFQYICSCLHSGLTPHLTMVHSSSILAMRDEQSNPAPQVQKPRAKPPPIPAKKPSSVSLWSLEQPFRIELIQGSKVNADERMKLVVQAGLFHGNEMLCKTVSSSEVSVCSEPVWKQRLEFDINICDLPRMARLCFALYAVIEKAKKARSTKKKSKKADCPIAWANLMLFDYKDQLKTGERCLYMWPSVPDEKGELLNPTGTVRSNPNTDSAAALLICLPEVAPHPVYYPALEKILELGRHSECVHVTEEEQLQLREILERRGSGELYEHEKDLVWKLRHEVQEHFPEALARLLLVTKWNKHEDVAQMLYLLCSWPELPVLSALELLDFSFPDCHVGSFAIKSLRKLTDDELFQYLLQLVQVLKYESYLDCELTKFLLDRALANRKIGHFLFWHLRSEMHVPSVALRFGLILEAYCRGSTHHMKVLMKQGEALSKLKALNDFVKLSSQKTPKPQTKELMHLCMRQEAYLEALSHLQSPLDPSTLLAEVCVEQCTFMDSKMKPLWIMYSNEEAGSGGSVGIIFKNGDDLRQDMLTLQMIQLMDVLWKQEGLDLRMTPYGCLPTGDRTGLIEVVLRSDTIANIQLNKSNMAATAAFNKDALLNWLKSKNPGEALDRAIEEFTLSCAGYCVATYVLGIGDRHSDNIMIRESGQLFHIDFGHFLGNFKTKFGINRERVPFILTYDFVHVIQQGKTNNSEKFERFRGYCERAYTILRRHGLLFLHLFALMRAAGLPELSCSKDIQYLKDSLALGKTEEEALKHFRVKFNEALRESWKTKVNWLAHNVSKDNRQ
- measurementNotes: PI3K enzyme inhibitory activity in the cell free assay (ADP-Glo Kinase Assay)
- experimentalContext: human recombinant PI3Kδ, ATP 80 μM; read-out: PI3K delta inhibition
pIC50: −log10 of the molar value. Where a name gives a salt, the structure may show the parent alone.
Task for the reader: assign each of the following molecules its reported pIC50.

stdin: // pIC50 lookup, key: CC(c1oc(=O)c2ccccc2c1C1=CC(C)(C)NC(C)(C)C1)n1nc(-c2cncc(O)c2)c2c(N)ncnc21 (stereo not drawn) [Example 145, dihydrochloride]
stdout: > 8.00

stdin: // pIC50 lookup, key: Nc1ncnc2c1c(-c1cc(O)cc(F)c1)nn2CC1=C(c2ccccc2)c2ccccc2CO1 [Example 128]
stdout: 6.00 to 8.00

stdin: // pIC50 lookup, key: CC(c1oc(=O)c2ccccc2c1-c1ccc(CN2CCCC2)s1)n1nc(-c2cc(O)cc(F)c2)c2c(N)ncnc21 (stereo not drawn) [Example 73, hydrochloride]
stdout: > 8.00

stdin: // pIC50 lookup, key: CC(c1oc(=O)c2ccccc2c1C1=CCN(C(=O)C2CN(C)C2)CC1)n1nc(-c2cc(O)cc(F)c2)c2c(N)ncnc21 (stereo not drawn) [Example 151, formate]
stdout: 6.00 to 8.00

stdin: // pIC50 lookup, key: CC(c1oc(=O)c2ccccc2c1-c1cccc(CN2CCN(C)CC2)c1)n1nc(-c2cc(O)cc(F)c2)c2c(N)ncnc21 (stereo not drawn) [Example 142]
stdout: > 8.00

stdin: // pIC50 lookup, key: CC(=O)N1CC=C(c2c(C(C)n3nc(-c4cncc(O)c4)c4c(N)ncnc43)oc(=O)c3ccccc23)CC1 (stereo not drawn) [Example 71]
stdout: > 8.00

stdin: // pIC50 lookup, key: CC(c1oc(=O)c2ccccc2c1C1=CCN(CC2CC2)CC1)n1nc(-c2cc(O)cc(F)c2)c2c(N)ncnc21 (stereo not drawn) [Example 66, hydrochloride]
stdout: > 8.00

stdin: // pIC50 lookup, key: CC(c1oc(=O)c2ccccc2c1-c1ccccc1)n1nc(-c2cncc(N)c2)c2c(N)ncnc21 (stereo not drawn) [Example 88, hydrochloride]
stdout: 6.00 to 8.00

stdin: // pIC50 lookup, key: CC(c1oc(=O)c2ccccc2c1C1=CCN(C(=O)CCCN(C)C)CC1)n1nc(-c2cc(O)cc(F)c2)c2c(N)ncnc21 (stereo not drawn) [Example 146, formate]
stdout: > 8.00

stdin: // pIC50 lookup, key: CC(c1oc(=O)c2ccccc2c1-c1ccc(CN2CCCCC2)s1)n1nc(-c2cc(O)cc(F)c2)c2c(N)ncnc21 (stereo not drawn) [Example 68, hydrochloride]
stdout: > 8.00

stdin: // pIC50 lookup, key: CC(c1oc(=O)c2ccccc2c1-c1cccc(CCCN(C)C)c1)n1nc(-c2cc(O)cc(F)c2)c2c(N)ncnc21 (stereo not drawn) [Example 137, Formic Acid]
stdout: > 8.00

stdin: // pIC50 lookup, key: Nc1ncnc2c1ncn2Cc1oc(=O)c2ccccc2c1-c1ccccc1F [Example 3]
stdout: 6.00 to 8.00

stdin: // pIC50 lookup, key: CC(c1oc(=O)c2ccccc2c1-c1cnc(N)s1)n1nc(-c2cc(O)cc(F)c2)c2c(N)ncnc21 (stereo not drawn) [Example 121, hydrochloride]
stdout: 6.00 to 8.00

stdin: // pIC50 lookup, key: CC(C)N1CCC=C(c2c(C(C)n3nc(-c4cc(O)cc(F)c4)c4c(N)ncnc43)oc(=O)c3ccccc23)C1 (stereo not drawn) [Example 174, hydrochloride]
stdout: 6.00 to 8.00

stdin: // pIC50 lookup, key: CC(=O)N1CC=C(c2c(C(C)n3nc(-c4cc(O)cc(F)c4)c4c(N)ncnc43)oc(=O)c3ccccc23)CC1 (stereo not drawn) [Example 72]
stdout: > 8.00

stdin: // pIC50 lookup, key: CC(c1oc(=O)c2ccccc2c1-c1ccc(CCCN(C)C)s1)n1nc(-c2cc(O)cc(F)c2)c2c(N)ncnc21 (stereo not drawn) [Example 136, Formate]
stdout: > 8.00

stdin: // pIC50 lookup, key: Cc1cccc(-c2c(C(C)n3nc(I)c4c(N)ncnc43)oc(=O)c3ccccc23)c1 (stereo not drawn) [Int D3]
stdout: > 8.00

stdin: // pIC50 lookup, key: CC(c1oc(=O)c2ccccc2c1C1=CCNCC1)n1nc(-c2cc(O)cc(C(F)(F)F)c2)c2c(N)ncnc21 (stereo not drawn) [Example 153, formate]
stdout: > 8.00

stdin: // pIC50 lookup, key: CC(c1oc(=O)c2ccccc2c1C1=CCN(C(=O)CN(C)C)CC1)n1nc(-c2cc(O)cc(F)c2)c2c(N)ncnc21 (stereo not drawn) [Example 147, formate]
stdout: > 8.00

stdin: // pIC50 lookup, key: CC(c1oc(=O)c2ccccc2c1-c1cccc(C(=O)NCCN(C)C)c1)n1nc(-c2cc(O)cc(F)c2)c2c(N)ncnc21 (stereo not drawn) [Example 70, hydrochloride]
stdout: > 8.00

stdin: // pIC50 lookup, key: CC(c1oc(=O)c2ccccc2c1C1=CCN(C(=O)C2CCN(C)CC2)CC1)n1nc(-c2cc(O)cc(F)c2)c2c(N)ncnc21 (stereo not drawn) [Example 148, formate]
stdout: > 8.00
